Consider the following molecules and their measured AC50 readings.
Target: Muscarinic acetylcholine receptor M2 (Homo sapiens)
Experiment: NVS_GPCR_hM2: NovaScreen (NVS) G Protein-Coupled Receptor Assay for human Muscarinic, M2 Receptor (AID 2283273)
Records with an inconclusive call do not appear. Active and inactive are the calls of the source. Rule for the calls: active = hit-call score of the fitted dose curve at least 0.9, where 1 is the maximum; inconclusive = response in the unintended direction; inactive = score below 0.9.

- substance_smiles: "c1ccc(C[n+]2cccc3ccccc32)cc1"
  AC50: "9.2 µM (active)"
- substance_smiles: "Cc1occc1C(=O)Nc1ccc(C(=O)N2CCC(F)(F)/C(=C\\C(=O)N3CCC(N4CCCCC4)CC3)c3ccccc32)cc1"
  AC50: "4.43 µM (active)"
- substance_smiles: "CCCCCCCCCCCC[N+](C)(C)C"
  AC50: "1.39 µM (active)"
- substance_smiles: "CCOC(=O)O[C@H](C)OC(=O)c1ccc2c(c1)cc(C(=O)NC1CCN(C(C)C)CC1)n2Cc1cc(-c2ccc(Cl)s2)on1"
  AC50: "3.64 µM (active)"
- substance_smiles: "CN(C)C(=O)C1(N2CCCCC2)CCN(CC[C@@]2(c3ccc(Cl)c(Cl)c3)CN(C(=O)c3ccccc3)CCO2)CC1"
  AC50: "6.82 µM (active)"
- substance_smiles: "COc1ccc2cc(S(=O)(=O)N[C@H](CC(=O)N[C@H](Cc3ccc(CN4[C@H](C)CCC[C@@H]4C)cc3)C(=O)N(C)C(C)C)c3ccc4c(c3)OCO4)ccc2c1"
  AC50: "0.535 µM (active)"

From here, focus on the item given below.
Exercise: Give a short answer stating reported AC50 for `O=C1c2ccccc2C(=O)N1CCc1noc(-c2ccc(CN3CCCCCC3)s2)n1` .
Solution: 2.83 µM (active)

---

Test: ACEA_AR_agonist_AUC_viability: ACEA Biosciences xCELLigence Real-Time Cell Analysis on Androgen Receptor Agonism for Viability (AID 2283775)
Records with an inconclusive call do not appear. Activity calls are given as the source filed them. How the source made its calls: active means hit-call score of the fitted dose curve at least 0.9, where 1 is the maximum; inconclusive means response in the unintended direction; inactive means score below 0.9.
In this exercise, the only acceptable responses are active, inactive

- molecule: "O=C(O)Cc1cc(I)c(Oc2ccc(O)c(I)c2)c(I)c1"
  class_name: "active"

Exercise: State the result this test recorded for `Oc1ccccc1` .
Solution: inactive

Exercise: State the result this test recorded for `Cc1c2ccccc2c(C)c2c1ccc1ccccc12` .
Solution: active

Exercise: State the result this test recorded for `CC(C)(C)c1csc(-c2cc3cc(OCc4ccccc4CC(=O)O)ccc3o2)n1` .
Solution: active

Exercise: State the result this test recorded for OC12N=C(c3ccccc3)SC1Cc1cc(Cl)ccc12 (configuration not stated) .
Solution: active

Exercise: State the result this test recorded for `Cc1ccc(C(C)C)cc1` .
Solution: inactive

Exercise: State the result this test recorded for `CN(C)c1ccc(C(=C2C=CC(=[N+](C)C)C=C2)c2ccc(N(C)C)cc2)cc1` .
Solution: active

Exercise: State the result this test recorded for `CC[C@@H]1C[C@H](N(Cc2cc(C(F)(F)F)cc(C(F)(F)F)c2)C(C)=O)c2cc(C(F)(F)F)ccc2N1C(=O)OC(C)C` .
Solution: inactive

Exercise: State the result this test recorded for `CCCC(=O)OCCC(C)C` .
Solution: inactive

Exercise: State the result this test recorded for `O=c1c(-c2ccc(O)cc2)coc2cc(O)cc(O)c12` .
Solution: active

Exercise: State the result this test recorded for `Clc1cc(Cl)c2c(c1)N=C1CCCCCN1C2` .
Solution: inactive

Exercise: State the result this test recorded for `Cc1ccc2oc(CN(Cc3ccccc3)C(=O)Nc3c(F)cc(F)cc3F)c(-c3ccc(Cl)cc3)c2c1` .
Solution: active

Ref: PubChem BioAssay (EPA / NIEHS)
